- Tested on: T1, cJun bZIP (human, UniProt P05412 252-308, limits assumed)
- T1 chain: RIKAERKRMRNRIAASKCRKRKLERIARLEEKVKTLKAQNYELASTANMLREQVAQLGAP
- Assay text: cell-based or functional assay
Observed property: IC50 CD (µM)

Binder	Observed property	Result
Ac-LVVEEDVLEEEIEQLEERNYALRKEIEDLQKQLEDL-NH2 (lactam (positions not given here); also: one i to i+4 K-to-D lactam, places not given here (K24/D28 or K31/D35), Synthetic, NΔ24 CΔ3; also called cyclised form of 9/10) [HingeW variant peptide 10]	IC50 CD	69
Ac-EAEELVVEEDVLEEEIEQLEERNYALRKEIEDLQKQLEKL-NH2 (Synthetic, NΔ20 CΔ3) [HingeW variant peptide 4]	IC50 CD	45.4
